Data credit: the Immune Epitope Database (IEDB)

- system_under_test: HLA-B*40:01
- method: IEDB peptide-MHC binding, purified MHC/competitive/radioactivity; filed as Kd, often an IC50 or EC50 that approximates it; bounds were set here for any values at or beyond the usual limits of such assays
- run_parameters: source organism: SARS coronavirus Tor2
pKd by entry:
Interpret pKd as the negative base-10 log of the concentration measured in mol/L.

Worked examples, 5 sequences total:
{"columns": ["sequence", "pKd"],
 "data": [
  ["AEYKLQQGTF", 5.34],
  ["AEWVLAYML", 8.32],
  ["VETVSLAGSY", 4.75],
  ["PEFYEAMYT", 5.43],
  ["AEAAVKPLLA", 6.79]
]}

Now turn to the next sequence.
The sequence listed as SEQSLRLVDA has a reported pKd of 4.73
